Listed compounds paired with reported Ki
SYSTEM_TESTED: human 5-HT1A receptors (Homo sapiens, UniProt P08908)
Construct: expressed in transfected cells; host or cells: CHO cells
Sequence (P08908 whole entry): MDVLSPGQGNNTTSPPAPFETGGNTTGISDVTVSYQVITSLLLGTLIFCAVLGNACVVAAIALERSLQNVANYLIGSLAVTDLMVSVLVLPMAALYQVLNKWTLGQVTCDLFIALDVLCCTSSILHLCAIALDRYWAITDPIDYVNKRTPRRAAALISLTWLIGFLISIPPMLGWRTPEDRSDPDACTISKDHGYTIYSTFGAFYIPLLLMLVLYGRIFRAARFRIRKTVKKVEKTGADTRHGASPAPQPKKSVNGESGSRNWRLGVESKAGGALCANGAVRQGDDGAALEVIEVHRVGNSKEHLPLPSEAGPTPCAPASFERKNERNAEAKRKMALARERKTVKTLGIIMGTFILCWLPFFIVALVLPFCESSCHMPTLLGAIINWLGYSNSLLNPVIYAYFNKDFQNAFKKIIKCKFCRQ
PROTOCOL_DETAILS: [3H] 8-OH-DPAT displacement from 5-HT1A receptor
Assay type: binding
CONDITION_INFO: CHO cells stably transfected with human 5-HT1A receptors; [3H] 8-OH-DPAT; read-out: 5-HT1A Receptor Affinity KI
Please reply with the bare figure in nM and do not write the unit itself.

Cc1ccc2c3c(ccc2n1)OCC(CN1CCC2(CC1)C(=O)NCN2c1ccccc1)O3 (centres unmarked) = 1.79
O=C1NCN(c2ccccc2)C12CCN(CC1COc3ccc4ncccc4c3O1)CC2 (centres unmarked) = 1.44
CCc1ccc2c3c(ccc2n1)OCC(CN1CCC2(CC1)C(=O)NCN2c1ccccc1)O3 (centres unmarked) = 2.79
Cc1ccc2c3c(ccc2n1)OCC(CN1CCC(O)(c2cccc(C(F)(F)F)c2)CC1)O3 (centres unmarked) = 6.94
Cc1ccc2c3c(ccc2n1)OCC(CN1CC=C(c2ccccc2)CC1)O3 (centres unmarked) = 7.91

Which value of Ki has been reported for Cc1ccc2c3c(ccc2n1)OCC(CN1CCCCC1)O3 (centres unmarked) in the records?
51

Also Cc1ccc2c3c(ccc2n1)OCC(CN1CCC(C(=O)c2ccc(F)cc2)CC1)O3 (centres unmarked) ?
18.5

Also Cc1ccc2c3c(ccc2n1)OC[C@H](CN1CCC(n2c(=O)[nH]c4ccccc42)CC1)O3 ?
3.08

###

SYSTEM_TESTED: cloned human 5-HT1A receptors (Homo sapiens, UniProt P08908)
Construct: expressed in transfected cells
PROTOCOL_DETAILS: 35S-GTPγS binding assay, antagonist activity versus 8-OH-DPAT
Format: biochemical
CONDITION_INFO: value in parentheses after IC50
Listed molecules paired with reported 5-HT1A Function Imax (maximum inhibitory effect)

These solved cases illustrate the format of a correct answer.
Cc1ccc2c3c(ccc2n1)OCC(CN1CCC2(CC1)C(=O)NCN2c1ccccc1)O3 (centres unmarked) = 100
O=C1NCN(c2ccccc2)C12CCN(CC1COc3ccc4ncccc4c3O1)CC2 (centres unmarked) = 100
Cc1ccc2c3c(ccc2n1)OCC(CN1CCC(C#N)(c2ccccc2)CC1)O3 (centres unmarked) = 50
Cc1ccc2c3c(ccc2n1)OCC(CN1CCCCC1)O3 (centres unmarked) = 100

Now turn to the next molecule.
Which value of 5-HT1A Function Imax (maximum inhibitory effect) has been reported for Cc1ccc2c3c(ccc2n1)OC[C@H](CN1CCC(n2c(=O)[nH]c4ccccc42)CC1)O3 in the records?
85.0

###

SYSTEM_TESTED: human 5-HT1A receptors (Homo sapiens, UniProt P08908)
Construct: expressed in transfected cells; host or cells: CHO cells
PROTOCOL_DETAILS: [3H] 8-OH-DPAT displacement from 5-HT1A receptor
Format: binding
RESULT_TYPE: pKi
Lab note — pKi values are minus log10 of concentrations in M.

Which value of pKi has been reported for Cc1ccc2c3c(ccc2n1)OCC(CN1CCC(C#N)(c2ccccc2)CC1)O3 (stereo not shown) [Example 7] in the records?
7.12

###

SYSTEM_TESTED: cloned human 5-HT1A receptors (Homo sapiens)
Construct: expressed in transfected cells
PROTOCOL_DETAILS: 35S-GTPγS binding assay, antagonist activity versus 8-OH-DPAT
Type: biochemical
RESULT_TYPE: pIC50
Lab note — pIC50 values are minus log10 of concentrations in M.

Which value of pIC50 has been reported for Cc1ccc2c3c(ccc2n1)OCC(CN1CCC(C#N)(c2ccccc2)CC1)O3 (stereo not shown) [Example 7] in the records?
6.35

###

Where a name gives a salt, the structure may show the parent alone.
RESULT_TYPE: melting point

These solved cases illustrate the format of a correct answer.
Cc1ccc2c3c(ccc2n1)OCC(CN1CCC(C(=O)c2ccc(F)cc2)CC1)O3 (stereo not drawn) (as salt: fumarate) (hydrate or solvate) [Example 5] = 206 to 207 °C
Cc1ccc2c3c(ccc2n1)OCC(CN1CCC(C#N)(c2ccccc2)CC1)O3 (stereo not drawn) (as salt: salt) [Example 7] = 185 to 187 °C

Which value of melting point has been reported for Cc1ccc2c3c(ccc2n1)OCC(CN1CCC2(CC1)C(=O)NCN2c1ccccc1)O3 (stereo not drawn) (as salt: fumarate) (hydrate or solvate) [Example 2] in the records?
199 to 201 °C

Also Cc1ccc2c3c(ccc2n1)OC[C@H](CN1CCC(n2c(=O)[nH]c4ccccc42)CC1)O3 (as salt: fumarate) (hydrate or solvate) [Example 3] ?
194 to 196 °C

Also CCc1ccc2c3c(ccc2n1)OCC(CN1CCC2(CC1)C(=O)NCN2c1ccccc1)O3 (stereo not drawn) (as salt: fumarate) (hydrate or solvate) [Example 9] ?
207 to 209 °C

Also O=C1NCN(c2ccccc2)C12CCN(CC1COc3ccc4ncccc4c3O1)CC2 (stereo not drawn) (as salt: fumarate) [Example 1] ?
170 °C

###

Counter-ions that a name gives are not always drawn.
RESULT_TYPE: melting point

Cc1ccc2c3c(ccc2n1)OCC(CN1CCC(O)(c2cccc(C(F)(F)F)c2)CC1)O3 (stereo not drawn) (as salt: fumarate) (hydrate or solvate) [Example 6] = 133 to 135 °C
Cc1ccc2c3c(ccc2n1)OCC(CN1CC=C(c2ccccc2)CC1)O3 (stereo not drawn) (as salt: fumarate) (hydrate or solvate) [Example 8] = 185 to 188 °C

Now turn to the next compound.
Which value of melting point has been reported for Cc1ccc2c3c(ccc2n1)OCC(CN1CCCCC1)O3 (stereo not drawn) (as salt: hydrochloride) (hydrate or solvate) [Example 4] in the records?
278 to 280 °C

###

Listed molecules paired with reported IC50
SYSTEM_TESTED: cloned human 5-HT1A receptors (Homo sapiens)
Construct: expressed in transfected cells
PROTOCOL_DETAILS: 35S-GTPγS binding assay, antagonist activity versus 8-OH-DPAT
Type: biochemical
CONDITION_INFO: reversal of the effects of the standard agonist 8-OH-DPAT on 35S-GTPγS binding; read-out: 5-HT1A Function IC50
Please append the unit to your numeric answer.

These solved cases illustrate the format of a correct answer.
Cc1ccc2c3c(ccc2n1)OCC(CN1CCC2(CC1)C(=O)NCN2c1ccccc1)O3 (stereo not shown) [Example 2] = 64 nM
Cc1ccc2c3c(ccc2n1)OC[C@H](CN1CCC(n2c(=O)[nH]c4ccccc42)CC1)O3 [Example 3] = 66 nM
Cc1ccc2c3c(ccc2n1)OCC(CN1CCCCC1)O3 (stereo not shown) [Example 4] = 483 nM

Now turn to the next molecule.
Which value of IC50 has been reported for O=C1NCN(c2ccccc2)C12CCN(CC1COc3ccc4ncccc4c3O1)CC2 (stereo not shown) [Example 1] in the records?
55 nM

src = patent US6821981B2
